# Assay procedure: melting temperature; fluorescence melt of hairpins on a sequencing array, two-state fit, raised by 9.35 °C to match UV melts
# Conditions: sodium 0.088 M
Listing: Tm of selected sequences
The response must be a number in °C with no trailing unit.

GAGAGCGAAAGCTCCCTC ((((((....)))..))): 44
GATCGACAACTCGATC ((((((....)))))): 48.5
GACTACGGAAACGTGGTC (((.(((....))).))): 52
GGGATTCGAAAGAACCC (((.(((....)))))): 47.1
CGCGGAAGAATCCGCG ((((((....)))))): 69
GCAATGCGAAAGCAAGGC ((..(((....)))..)): 43.7
GCGTCCGAAAGGAACCGC ((((((....)))..))): 48.5
GGACCAGCGAAAGCTTCC (((..(((....)))))): 25.2

INPUT: So what does the record say about Tm for GATGCGGCGAAAGCCATC (((..(((....)))))) ?
OUTPUT: 29.2

INPUT: # repeat for GTGCTCCGAAAGGATCAC (((.(((....))).)))
OUTPUT: 50.2

INPUT: What about GATGTTGGAAACAATGTC ((..(((....)))..)) ?
OUTPUT: 31.1

INPUT: GGCAACGCGAAAGCGGCC (((..(((....)))))) , same question.
OUTPUT: 59.7

INPUT: Check GGCAAAGGAAACCTTGCC (((((.(....).))))) too.
OUTPUT: 49.3

INPUT: And GTCGTGGCGAAAGCCGAC (((..(((....)))))) ?
OUTPUT: 54.6

Where these numbers come from: the array DNA melting data of Ke et al. (doi:10.1101/2024.01.08.574731)
